Target: human DGAT2 (hDGAT2) (Homo sapiens (Human), UniProt Q96PD7)
Sequence (Q96PD7 whole entry): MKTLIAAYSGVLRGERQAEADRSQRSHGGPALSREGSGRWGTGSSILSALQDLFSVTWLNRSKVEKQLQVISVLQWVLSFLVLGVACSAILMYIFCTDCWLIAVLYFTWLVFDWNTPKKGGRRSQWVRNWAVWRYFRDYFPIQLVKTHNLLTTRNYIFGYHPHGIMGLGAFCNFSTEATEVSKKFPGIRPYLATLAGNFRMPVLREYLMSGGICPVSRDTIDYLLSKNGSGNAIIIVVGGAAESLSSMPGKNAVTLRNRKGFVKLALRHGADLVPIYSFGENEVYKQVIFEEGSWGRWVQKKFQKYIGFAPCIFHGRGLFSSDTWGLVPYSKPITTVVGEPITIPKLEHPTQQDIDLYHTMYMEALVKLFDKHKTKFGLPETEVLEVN
Experiment: DGAT2 Enzymatic Activity Assay
Format: biochemical
Conditions: hDGAT2 Sf-9 membrane prep; 13C18-triolein product by LC/MS/MS; 25 μM diolein, 5 μM 13C oleoyl-CoA
Protocol: Sf-9 insect cells were maintained in Grace's insect cell culture medium with 10% heated-inactivated fetal bovine serum, 1% Pluronic F-68 and 0.14 μg/ml Kanamycine sulfate at 27° C. in a shaker incubator. […] The protein concentration was determined with the Pierce™ BCA Protein Assay Kit (Thermo Fisher Scientific). […] DGAT2 activity was determined by measuring the amount of enzymatic product ^13C18-triolein (^13C-1,2,3-Tri(cis-9-octadecenoyl)glycerol) using the membrane prep mentioned above. […]
pIC50: −log10 of the molar value.
READOUT KIND: pIC50

A selection of reference data follows.
[2H]C([2H])([2H])C([2H])(n1nc(-c2cc(OC(F)F)ccc2F)c2c1C[C@H](C(=O)NC1(C#N)CCS(=O)(=O)CC1)CC2)C([2H])([2H])[2H]	8.37
Cn1nccc1-c1nn(-c2ccc(F)cn2)c2c1CC[C@@H](C(=O)N[C@@]1(C)CCS(=O)(=O)C1)C2	5.07

1. CC(C)n1nc(-c2cc(OC(F)F)ccc2F)c2c1CC(C(=O)N[C@@]1(C)CCS(=O)(=O)C1)CO2 (some centres unmarked)
2. CC(C)n1nc(-c2cccc(OC(F)F)c2)c2c1C[C@H](C(=O)NCc1cccnc1)CC2
Returns: the argument ( 1 or 2 ) having the larger pIC50. API: response body contains the label of the selected item.
1
